Species on record: Rattus norvegicus
experimental-protocol: Open TG-GATES - Regimen: Single
Assay type: toxicity, organism-based, Sprague-Dawley
Set-up: regimen Single, gender Male, age 6 weeks
settings: in vivo, po, 0 mg/kg, 24 h, tissue Plasma, route gavage, dose level Control
Exercise: for every item that follows, state its recorded Ca.
Numbers only, in mg/dL.

Take a look at these entries with their results.
compound	Ca [mg/dL]
CCSCC[C@H](N)C(=O)O	10.7
C[C@](N)(Cc1ccc(O)c(O)c1)C(=O)O	11
CC(=N)S [THIOACETAMIDE]	10.4
CC(=O)Oc1cc(C(C)C)c(OCCN(C)C)cc1C	10.9
CC(C)(S)[C@@H](N)C(=O)O	11.1

Reported Ca for Nc1nc(N)c2nc(-c3ccccc3)c(N)nc2n1 was 11.2

###

Exercise: for every item that follows, state its recorded MCV.
Organism: Rattus norvegicus
experimental-protocol: Open TG-GATES - Regimen: Daily Repeat
Type: toxicity, organism-based, Sprague-Dawley
Parameters: regimen Daily Repeat, gender Male, age 6 weeks
settings: in vivo, po, 1000 mg/kg, […], tissue Blood, route gavage, dose level High, time 7 day
Give bare numbers, in fL.

Take a look at these entries with their results.
compound	MCV [fL]
O=C(O)c1cccnc1 [NIACIN]	61.6
CCN1CCCC1CNC(=O)c1cc(S(N)(=O)=O)ccc1OC (centres undefined) [SULPIRIDE]	62.6
O=C(N[C@H](CO)[C@H](O)c1ccc([N+](=O)[O-])cc1)C(Cl)Cl [CHLORAMPHENICOL]	63.3

Okay, now this compound:
Reported MCV for CC(C)(S)[C@@H](N)C(=O)O [PENICILLAMINE] was 59

###

Exercise: for every item that follows, state its recorded Neu.
Organism: Rattus norvegicus
experimental-protocol: Open TG-GATES - Regimen: Daily Repeat
Format: toxicity, organism-based, Sprague-Dawley
Design: regimen Daily Repeat, gender Male, age 6 weeks
settings: in vivo, po, 0 mg/kg, 72 h, tissue Blood, route gavage, dose level Control, time 3 day
Give bare numbers, in %.

compound	readout-name	observed-measurement
CC(C)C(=O)Nc1ccc([N+](=O)[O-])c(C(F)(F)F)c1 [FLUTAMIDE]	Neu	16
CC(=N)S [THIOACETAMIDE]	Neu	16.4

Could you tell me Neu for each of these compounds? They are listed below.
1. O=C(N[C@H](CO)[C@H](O)c1ccc([N+](=O)[O-])cc1)C(Cl)Cl
2. C[C@]12CCC(=O)C=C1CC[C@@H]1[C@@H]2CC[C@@]2(C)[C@H]1CC[C@]2(C)O
3. C[C@](N)(Cc1ccc(O)c(O)c1)C(=O)O
4. Nc1nc(N)c2nc(-c3ccccc3)c(N)nc2n1
5. CC(C)(S)[C@@H](N)C(=O)O
6. CCc1oc2ccccc2c1C(=O)c1cc(I)c(O)c(I)c1

1. 23.8
2. 17.4
3. 22.6
4. 17.2
5. 19.6
6. 15.6

Could you tell me Neu for each of these compounds? They are listed below.
1. CCSCC[C@H](N)C(=O)O
2. Oc1ncnc2[nH]ncc12

1. 17.2
2. 12.8

###

Exercise: for every item that follows, state its recorded RBC.
Species on record: Rattus norvegicus
experimental-protocol: Open TG-GATES - Regimen: Single
Type: toxicity, organism-based, Sprague-Dawley
Parameters: regimen Single, gender Male, age 6 weeks
settings: in vivo, po, 0 mg/kg, 9 h, tissue Blood, route gavage, dose level Control
One number for each entry, in x10_4/ul.

Take a look at these entries with their results.
molecule	unit	RBC
C[C@](N)(Cc1ccc(O)c(O)c1)C(=O)O	x10_4/ul	588.8
CCc1oc2ccccc2c1C(=O)c1cc(I)c(O)c(I)c1	x10_4/ul	606
Oc1ncnc2[nH]ncc12	x10_4/ul	633.4
CCC(C)(C)C(=O)O[C@H]1C[C@@H](C)C=C2C=C[C@H](C)[C@H](CC[C@@H]3C[C@@H](O)CC(=O)O3)[C@H]21	x10_4/ul	605.4

Reported RBC for CCN1CCCC1CNC(=O)c1cc(S(N)(=O)=O)ccc1OC (stereo not given) [SULPIRIDE] was 670.8
